Assay: PLAP enzyme activity inhibition – biochemical, colorimetric, counter-screen, dose response (AID 779)
pIC50: −log10 of the molar value.
Value type: pIC50

Query :: Given the compound "O=C1/C(=C\c2nc3ccccc3[nH]2)SC(=S)N1c1ccc(F)cc1" , what is its reported pIC50?
Result :: < 4.30
